B1: CPEB3 Ribozyme (parent)
chain: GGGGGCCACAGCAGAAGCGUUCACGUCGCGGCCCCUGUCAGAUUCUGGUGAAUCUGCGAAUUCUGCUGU

# Variants of: B1
# ASSAY SUMMARY: self-cleavage, relative activity (ratio to wild type); higher = more cleavage; co-transcriptional
READOUT KIND: self-cleavage
Give the value as a plain number.

Query: Report self-cleavage for G37A U55A
Response: 0.275

Query: Consider the variant G5U C32U . State its measured self-cleavage.
Response: 0.568

Query: Please supply the value of reported self-cleavage for the item A42C U64A
Response: 0.625

Query: Tell us which self-cleavage value is on record for C18U U21G
Response: 0.276

Query: Annotate the variant G1C G4A with its measured self-cleavage.
Response: 0.225

Query: Answer with reported self-cleavage of G4U G19U
Response: 0.112

Query: Tell me self-cleavage reported for C35U A42U
Response: 0.907

Query: Item G31C G37C : provide self-cleavage
Response: 0.217

Query: Find the measured self-cleavage of A40G U44G and report it.
Response: 0.843

Query: Fill in reported self-cleavage for this entry: C33U G41C
Response: 0.728

Query: Annotate the variant A16G G28C with its measured self-cleavage.
Response: 0.0652

Query: Determine from records and report self-cleavage for G17A G65C
Response: 0.27

Query: Hello, please tell me recorded self-cleavage for this one: C35G U43G
Response: 0.31

Query: Assign self-cleavage to the following record: C6A C33U
Response: 0.347

Query: Annotate the variant C39A G65U with its measured self-cleavage.
Response: 0.397

Query: Hello, please tell me recorded self-cleavage for this one: G14U G37U
Response: 0.129

Query: Fill in self-cleavage for record A16C U26C
Response: 0.264

Query: Respond only with self-cleavage recorded for A23C C54G
Response: 0.921

Query: Return the recorded self-cleavage value; entry: C33U G56A
Response: 0.949

Query: Kindly indicate its recorded self-cleavage. Item: G1U A52G
Response: 0.167

Query: Fill in self-cleavage for record G4C C18A
Response: 0.0472

Query: Give the reported value of self-cleavage for this record: G4A G19C
Response: 0.11
